MEASUREMENT_TARGET: T1, human PDGF-BB (platelet derived growth factor B homodimer) (human, UniProt P01127)
T1 construct: Platelet derived growth factor B, human, homodimer, bought from PeproTech; the printed catalogue number may stand for 100-14B; source: bought: PeproTech, Catalog 100-148
T1 sequence (P01127 82-190): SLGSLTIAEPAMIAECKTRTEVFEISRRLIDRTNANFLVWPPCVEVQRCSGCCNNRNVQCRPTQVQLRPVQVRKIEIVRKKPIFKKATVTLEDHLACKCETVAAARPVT
ASSAY_METHOD_TEXT: SPR; Biacore T200, full kinetics; antibody captured by anti-human IgG on a CM5 chip; human PDGF-BB at 20, 10, 5, 2.5 and 1.25 nM, 50 s injection; HBS-EP+ N; 25 C; 1:1 Langmuir fit
CONDITION_PARAMETERS: both partners purified
MEASURED_PARAMETER: koff

Record summary for R2-001 (antibody, V domains shown, R2-001_HC: as the VH of m17 (R1-016), on which R2-001 was built; R2-001_LC: as the VL of m17 (R1-016) with FW1 changed to that of IGLV3-21*01; only the variable regions are written; also called round 2 parental R2-001; R2-001_HC with R2-001_LC; source: HEK293, transient, purified from conditioned medium (protein A, TMAE, HIC)) VH: EVQLLQSGGGLVKPGGSLRLSCAASGFTFSSYAMSWVRQAPGKGLEWVSYISDDGSLKYYADSVKGRFTISRDNSKNTLYLQMNSLRAEDTAVYYCARHPYWYGGQLDLWGQGTLVTVSS VL: SYVLTQPPSVSVAPGKTARITCSGDSLGSYFVHWYQQKPGQSPVLVIYDDSKRPSGIPERFSGSNSGNTATLTISGTQAMDEADYYCSAFTHNSDVFGGGTKLTVL : reported koff = 0.000292 s⁻¹
